B1: MLL5 (parent)
chain: EQIAERKRKMVSWEASSLGLVTAA

variants of: B1; test: protein stability index of a GFP-peptide fusion (GPS, HEK-293T) (PSI 1-6); higher = more stable; conditions: c terminus: a fixed tail appended;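 further: lentivirally expressed fusions sorted by FACS into six bins by GFP to DsRed ratio, PSI derived from sequencing read proportions per bin multiplied by bin number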
ASSAY_METRIC: protein stability index

* K9L | 2.27
* T22K | 2.54
* K7Y | 2.29
* A23S | 2.68
* E1Q | 3.2
* A15R | 3.98
* E5C | 1.87
* T22E | 3.63
* E5G | 2.95
* S17D | 2.98
* S16I | 1.94
* S17K | 3.54
* A4H | 3.39
* T22I | 1.62
* M10S | 3.69
* S16K | 3.23
* S12Q | 2.33
* K9V | 2.46
* M10D | 4.4
* S16V | 2.29
* V11G | 3.39
* M10R | 4.01
* A24E | 4.38
* A4S | 3.34
* M10T | 3.55
* V21M | 3.32
* W13S | 4.33
* S17F | 1.37
* S12N | 3.19
* E1W | 1.69
* Q2P | 2.84
* R8W | 2.72
* M10L | 3.56
* V21D | 3.55
* A15S | 2.94
* E5A | 2.25
* A4Y | 2.8
* K7E | 4.03
* A15P | 3.77
* K9Q | 2.59
* T22D | 3.63
* V11M | 2.54
* A24D | 4.11
* L18G | 3.48
* E5D | 3.49
* K7I | 2.98
* R8V | 2.65
* K7T | 2.69
* M10Q | 3.95
* T22W | 1.79
* S17M | 1.54
* V21F | 2.38
* T22H | 2.85
* I3Q | 3.09
* V11E | 4.18
* S17Y | 2.43
* V21N | 3.22
* K9G | 3.73
* R8T | 3.89
* T22F | 1.83
* V11C | 2.87
* K9W | 1.88
* I3S | 3.05
* L20F | 3.35
* I3Y | 3.14
* V11P | 3.55
* I3T | 3.88
* E1N | 3.06
* R6E | 3.56
* R6W | 2.09
* A23M | 3.11
* Q2S | 2.55
* A4R | 3.59
* A23W | 2.08
* L18H | 2.97
* M10K | 3.7
* S12Y | 2.22
* R8M | 3.17
* M10C | 3.29
* I3A | 3.18
* E14M | 2.24
* E14R | 2.31
* I3P | 3.56
* A15L | 2.32
* R6Y | 2.78
* L20S | 4.99
* V11D | 2.81
* K7L | 1.97
* E14Q | 2.32
* G19T | 3.25
* A15K | 2.74
